Several publications report IC50 on PIK3CG (human); those values are gathered here.
TEST_READOUT: IC50

MOLECULE: C[C@H](Nc1ncnc2[nH]cnc12)c1cc2cccc(Cl)c2c(-c2cc(CO)on2)n1
RECORDED_RESULT: < 1 µM

MOLECULE: CCN1CCN(C2CN(c3cnc4ccc(-c5ccc6oc(N)nc6c5)nc4n3)C2)CC1
RECORDED_RESULT: < 10 µM

MOLECULE: Nc1nc2cc(-c3ccc4ncc(N5CC(N6CCN(C7CC7)CC6)C5)cc4n3)ccc2o1
RECORDED_RESULT: < 1 µM

MOLECULE: CN1CCN(Cc2nnc3ccc(-c4ccc5nc(N)oc5c4)cn23)CC1
RECORDED_RESULT: > 10 µM

MOLECULE: C[C@@H](Nc1ncnc2cc(F)ccc12)c1cc2cccc(Cl)c2c(=O)n1-c1ccccc1
RECORDED_RESULT: > 10 µM

MOLECULE: Cc1cn2nccc(N[C@@H](C)c3cc4cccc(Cl)c4c(=O)n3-c3cccc(F)c3)c2n1
RECORDED_RESULT: 1 to 10 µM

MOLECULE: CC(C)N1CCN(c2cnc3ccc(-c4ccc5oc(N)nc5c4)nc3c2)CC1
RECORDED_RESULT: < 1 µM
